# Test system: Candida albicans
# test protocol: Antifungal activity against Candida albicans ATCC 44859 after 24 hrs by microbroth dilution method
# Type: functional
# measurement context: ATCC 44859, 24 h
reported property: MIC

Solved entries (count: 5):
O=C(NC12CC3CC(CC(C3)C1)C2)Oc1ccc(Cl)cc1C(=O)Nc1ccc(Cl)cc1 > 250 µM
OC(Cn1cncn1)(Cn1cncn1)c1ccc(F)cc1F 0.24 µM
O=C(Nc1ccccc1)Oc1ccccc1C(=O)Nc1ccccc1 > 500 µM
O=C(NCc1ccccc1)Oc1ccccc1C(=O)Nc1ccccc1 125 µM
O=C(NCCc1ccccc1)Oc1ccccc1C(=O)Nc1ccccc1 > 500 µM

Query: Value lookup for MIC; key = O=C(NC1CCCCC1)Oc1ccc(Cl)cc1C(=O)Nc1ccc(Br)cc1
Result: > 125 µM

Query: For O=C(NCCc1ccccc1)Oc1ccc(Cl)cc1C(=O)Nc1ccc(Br)cc1 then?
Result: > 125 µM

* * *

MIC reference
# Tested on: Staphylococcus epidermidis
# test protocol: Antibacterial activity against Staphylococcus epidermidis H 6966/08 after 24 hrs by microbroth dilution method
# Assay type: functional
# measurement context: H 6966/08, 24 h
// return numeric value only (unit: µM, not printed)

O=C(NCCc1ccccc1)Oc1ccc(Cl)cc1C(=O)Nc1ccc(F)cc1 15.6

Query: Value lookup for MIC; key = O=C(NCc1ccccc1)Oc1ccc(Cl)cc1C(=O)Nc1ccc(F)cc1
Result: 15.6

Query: For O=C(NCc1ccccc1)Oc1ccc(Cl)cc1C(=O)Nc1ccc(Cl)cc1 then?
Result: 3.9

* * *

# System: Candida tropicalis
# test protocol: Antifungal activity against Candida tropicalis 156 after 48 hrs by microbroth dilution method
# Type: functional
# measurement context: Candida tropicalis, 156, 48 h
reported property: MIC

O=C(NCCc1ccccc1)Oc1ccc(Cl)cc1C(=O)Nc1ccc(Br)cc1 > 125 µM
O=C(Nc1ccccc1)Oc1ccc(Cl)cc1C(=O)Nc1ccc(F)cc1 > 250 µM
O=C(NC1CCCCC1)Oc1ccc(Cl)cc1C(=O)Nc1ccc(Cl)cc1 > 125 µM
O=C(Nc1ccccc1)Oc1ccc(Cl)cc1C(=O)Nc1ccc(Br)cc1 > 500 µM
O=C(NCc1ccccc1)Oc1ccc(Cl)cc1C(=O)Nc1ccc(Cl)cc1 > 125 µM

Query: Value lookup for MIC; key = O=C(NC1CCCCC1)Oc1ccc(Cl)cc1C(=O)Nc1ccc(Br)cc1
Result: > 125 µM

Query: For O=C(NC12CC3CC(CC(C3)C1)C2)Oc1ccc(Cl)cc1C(=O)Nc1ccc(Br)cc1 then?
Result: > 125 µM

Query: For O=C(NCc1ccccc1)Oc1ccc(Cl)cc1C(=O)Nc1ccc(F)cc1 then?
Result: > 250 µM

Query: For O=C(NCc1ccccc1)Oc1ccccc1C(=O)Nc1ccccc1 then?
Result: 125 µM

Query: For OC(Cn1cncn1)(Cn1cncn1)c1ccc(F)cc1F then?
Result: > 500 µM

* * *

# Tested on: Candida tropicalis
# test protocol: Antifungal activity against Candida tropicalis 156 after 48 hrs by microbroth dilution method
# Type: functional
# measurement context: Candida tropicalis, 156, 48 h
MIC reference

Query: Value lookup for MIC; key = O=C(NCCc1ccccc1)Oc1ccc(Cl)cc1C(=O)Nc1ccc(Cl)cc1
Result: > 500 µM

Query: For O=C(NCCc1ccccc1)Oc1ccc(Cl)cc1C(=O)Nc1ccc(F)cc1 then?
Result: > 500 µM

* * *

# Test system: Candida albicans
# test protocol: Antifungal activity against Candida albicans ATCC 44859 after 48 hrs by microbroth dilution method
# Format: functional
# measurement context: ATCC 44859, 48 h
reported property: MIC

Solved entries (count: 2):
C[C@@H]1[C@H](O)[C@@H](C)/C=C/C=C/C=C/C=C/C=C/C=C/C=C/[C@H](O[C@@H]2O[C@H](C)[C@@H](O)[C@H](N)[C@@H]2O)C[C@@H]2O[C@](O)(C[C@@H](O)C[C@@H](O)[C@H](O)CC[C@@H](O)C[C@@H](O)CC(=O)O[C@H]1C)C[C@H](O)[C@H]2C(=O)O 0.49 µM
O=C(NCCc1ccccc1)Oc1ccc(Cl)cc1C(=O)Nc1ccc(Br)cc1 > 125 µM

Query: Value lookup for MIC; key = OC(Cn1cncn1)(Cn1cncn1)c1ccc(F)cc1F
Result: 0.24 µM

Query: For O=C(NC12CC3CC(CC(C3)C1)C2)Oc1ccc(Cl)cc1C(=O)Nc1ccc(Br)cc1 then?
Result: > 125 µM

Query: For O=C(NC1CCCCC1)Oc1ccc(Cl)cc1C(=O)Nc1ccc(Cl)cc1 then?
Result: > 125 µM

Query: For O=C(NC1CCCCC1)Oc1ccccc1C(=O)Nc1ccccc1 then?
Result: > 500 µM

Query: For O=C(Nc1ccccc1)Oc1ccc(Cl)cc1C(=O)Nc1ccc(Br)cc1 then?
Result: > 500 µM

Query: For O=C(Nc1ccccc1)Oc1ccc(Cl)cc1C(=O)Nc1ccc(Cl)cc1 then?
Result: > 125 µM

Query: For O=C(NC1CCCCC1)Oc1ccc(Cl)cc1C(=O)Nc1ccc(Br)cc1 then?
Result: > 125 µM

* * *

# System: Pichia kudriavzevii
# test protocol: Antifungal activity against Candida krusei E28 after 24 hrs by microbroth dilution method
# Type: functional
# measurement context: E28, 24 h
reported property: MIC (µM)
// return numeric value only (unit: µM, not printed)

Solved entries (count: 5):
O=C(NCCc1ccccc1)Oc1ccccc1C(=O)Nc1ccccc1 125
O=C(NCc1ccccc1)Oc1ccccc1C(=O)Nc1ccccc1 125
O=C(NCc1ccccc1)Oc1ccc(Cl)cc1C(=O)Nc1ccc(F)cc1 250
O=C(NCCc1ccccc1)Oc1ccc(Cl)cc1C(=O)Nc1ccc(F)cc1 125
O=C(NC12CC3CC(CC(C3)C1)C2)Oc1ccc(Cl)cc1C(=O)Nc1ccc(Cl)cc1 125

Please look at the following compound next.
Query: Value lookup for MIC; key = O=C(Nc1ccccc1)Oc1ccc(Cl)cc1C(=O)Nc1ccc(Cl)cc1
Result: 62.5

* * *

MIC reference
# System: Pichia kudriavzevii
# test protocol: Antifungal activity against Candida krusei E28 after 24 hrs by microbroth dilution method
# Type: functional
# measurement context: E28, 24 h
// return numeric value only (unit: µM, not printed)

molecule	reported property	unit text	value reported
OC(Cn1cncn1)(Cn1cncn1)c1ccc(F)cc1F [FLUCONAZOLE]	MIC	µM	125
O=C(NCc1ccccc1)Oc1ccc(Cl)cc1C(=O)Nc1ccc(Br)cc1	MIC	µM	62.5
O=C(NCc1ccccc1)Oc1ccc(Cl)cc1C(=O)Nc1ccc(Cl)cc1	MIC	µM	62.5

Query: Value lookup for MIC; key = O=C(Nc1ccccc1)Oc1ccc(Cl)cc1C(=O)Nc1ccc(Br)cc1
Result: 250

Query: For C[C@@H]1[C@H](O)[C@@H](C)/C=C/C=C/C=C/C=C/C=C/C=C/C=C/[C@H](O[C@@H]2O[C@H](C)[C@@H](O)[C@H](N)[C@@H]2O)C[C@@H]2O[C@](O)(C[C@@H](O)C[C@@H](O)[C@H](O)CC[C@@H](O)C[C@@H](O)CC(=O)O[C@H]1C)C[C@H](O)[C@H]2C(=O)O [AMPHOTERICIN B] then?
Result: 1.95

Query: For O=C(NC1CCCCC1)Oc1ccc(Cl)cc1C(=O)Nc1ccc(Cl)cc1 then?
Result: 125

* * *

# Tested on: Trichosporon asahii
# test protocol: Antifungal activity against Trichosporon asahii 1188 after 24 hrs by microbroth dilution method
# Type: functional
# measurement context: Trichosporon asahii, 1188, 24 h
reported property: MIC

Solved entries (count: 5):
O=C(Nc1ccccc1)Oc1ccc(Cl)cc1C(=O)Nc1ccc(Br)cc1 125 µM
C[C@@H]1[C@H](O)[C@@H](C)/C=C/C=C/C=C/C=C/C=C/C=C/C=C/[C@H](O[C@@H]2O[C@H](C)[C@@H](O)[C@H](N)[C@@H]2O)C[C@@H]2O[C@](O)(C[C@@H](O)C[C@@H](O)[C@H](O)CC[C@@H](O)C[C@@H](O)CC(=O)O[C@H]1C)C[C@H](O)[C@H]2C(=O)O 0.49 µM
O=C(NC12CC3CC(CC(C3)C1)C2)Oc1ccc(Cl)cc1C(=O)Nc1ccc(Br)cc1 > 125 µM
O=C(NCc1ccccc1)Oc1ccc(Cl)cc1C(=O)Nc1ccc(Br)cc1 15.6 µM
O=C(NCCc1ccccc1)Oc1ccc(Cl)cc1C(=O)Nc1ccc(Cl)cc1 > 500 µM

Query: Value lookup for MIC; key = O=C(NCc1ccccc1)Oc1ccccc1C(=O)Nc1ccccc1
Result: 125 µM

Query: For O=C(Nc1ccccc1)Oc1ccc(Cl)cc1C(=O)Nc1ccc(Cl)cc1 then?
Result: 62.5 µM

Query: For O=C(NCc1ccccc1)Oc1ccc(Cl)cc1C(=O)Nc1ccc(F)cc1 then?
Result: 125 µM

* * *

MIC reference
# System: Trichophyton mentagrophytes
# test protocol: Antifungal activity against Trichophyton mentagrophytes 445 after 120 hrs by microbroth dilution method
# Format: functional
# measurement context: Trichophyton mentagrophytes, 445, 120 h
// return numeric value only (unit: µM, not printed)

Solved entries (count: 10):
O=C(NC1CCCCC1)Oc1ccc(Cl)cc1C(=O)Nc1ccc(Br)cc1 1.95
O=C(NCc1ccccc1)Oc1ccccc1C(=O)Nc1ccccc1 15.6
O=C(NCCc1ccccc1)Oc1ccc(Cl)cc1C(=O)Nc1ccc(Cl)cc1 1.95
O=C(Nc1ccccc1)Oc1ccccc1C(=O)Nc1ccccc1 125
O=C(NC1CCCCC1)Oc1ccc(Cl)cc1C(=O)Nc1ccc(Cl)cc1 7.81
O=C(NC1CCCCC1)Oc1ccc(Cl)cc1C(=O)Nc1ccc(F)cc1 1.95
O=C(NCc1ccccc1)Oc1ccc(Cl)cc1C(=O)Nc1ccc(Cl)cc1 1.95
OC(Cn1cncn1)(Cn1cncn1)c1ccc(F)cc1F 125
O=C(Nc1ccccc1)Oc1ccc(Cl)cc1C(=O)Nc1ccc(Cl)cc1 1.95
O=C(NCc1ccccc1)Oc1ccc(Cl)cc1C(=O)Nc1ccc(F)cc1 250

Please look at the following compound next.
Query: Value lookup for MIC; key = O=C(Nc1ccccc1)Oc1ccc(Cl)cc1C(=O)Nc1ccc(Br)cc1
Result: 3.9
